- experiment-notes: protein stability index of a GFP-peptide fusion (yeast GPS) (PSI 1-4); higher = more stable; sorted into four equal gates, so the index is relative within each strain
- condition-info: doa10∆
protein stability index vs 2: at or above is t, below is f.

**Q:** Hello, I need to know if VLIDLLNWFRTTNMNVN [RGR1] has measured protein stability index not below 2. Thanks!
**A:** t

**Q:** Kindly determine if protein stability index recorded for EEIKTVDPASAPNHSPE [RRP6] is above or exactly 2.
**A:** t

**Q:** Kindly determine if protein stability index recorded for YHSGRLLIQGPKASSAK [ITC1] is above or exactly 2.
**A:** t

***
**Q:** Kindly determine if protein stability index recorded for TPGLTFNAIDLARHLPA [RPC82] is above or exactly 2.
**A:** t

**Q:** Form field: protein stability index at least 2? Entry: YESRNVAKRRFEYSKYR [RRP6]
**A:** t

**Q:** Would you say KKIAQRERRAALTDFER [RPL14A] shows protein stability index at minimum 2?
**A:** t

**Q:** Textbook exercise: given the entry LINLKISPLMKSQYNMV [SRB8] , state whether its protein stability index is greater than or equal to 2.
**A:** f

**Q:** Reported protein stability index reaches at least 2 for FDNFLTEEELQAAVPDN [BRN1] ?
**A:** t

**Q:** I'd appreciate it if you could say whether GTILSSAGDDGKVRLWK [YGL100W/SEH1] has protein stability index at least equal to 2.
**A:** t

**Q:** Kindly determine if protein stability index recorded for TEGHKGHEELKRRIEEE [ISW2] is above or exactly 2.
**A:** t

**Q:** Hi team, for RHFGMGPHKGKAPRILS [RPL18A] , is the recorded protein stability index at or above 2?
**A:** t

**Q:** Exam item: decide whether the reported protein stability index for QESFNSVQNLDQLLTDL [NUT1] is at least 2.
**A:** t

**Q:** Test whether the sequence GVCNHAFHLHCINKWIK [HRT1] records protein stability index of 2 or higher.
**A:** f

Every entry's value here was drawn from the supplement of paper PMC9732359.
